Test system: 621-103 (TSC2-rescued)
Test: relative viability vs DMSO; higher = less cytotoxic;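 note: immortalized renal angiomyolipoma cells stably carrying empty vector or TSC2, dosed in 384-well plates in DMEM, viability normalized to vehicle-treated wells within each plate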
Conditions: 10 µM; serum: 10% FBS; 72 h
Structures can show the parent of a compound that is named as a salt.
Returns the class for an entry based on its relative viability. Class ranges: lower range = under 40%, middle range = from 40% up to 90%, upper range = 90% and over

Examples with answers:
COCCOC(=O)C1=C(C)NC(C)=C(C(=O)OC/C=C/c2ccccc2)C1c1cccc([N+](=O)[O-])c1 (centres undefined) [Cilnidipine]	upper range
CC[C@]1(O)C[C@H]2CN(CCc3c([nH]c4ccccc34)[C@@](C(=O)OC)(c3cc4c(cc3OC)N(C=O)[C@H]3[C@@](O)(C(=O)OC)[C@H](OC(C)=O)[C@]5(CC)C=CCN6CC[C@]43[C@@H]65)C2)C1 [Vincristine Sulfate]	lower range
COc1ccc2[nH]c([S@@+]([O-])Cc3ncc(C)c(OC)c3C)nc2c1 [Esomeprazole sodium (Nexium I.V.)]	middle range
O=C1N=C(O)NC1(c1ccccc1)c1ccccc1 [Phenytoin sodium]	upper range
CC1(C)CCC(c2ccc(Cl)cc2)=C(CN2CCN(c3ccc(C(=O)NS(=O)(=O)c4ccc(N[C@H](CCN5CCOCC5)CSc5ccccc5)c(S(=O)(=O)C(F)(F)F)c4)cc3)CC2)C1 [ABT-263 (Navitoclax)]	middle range
Cc1cn(-c2cc(NC(=O)c3ccc(C)c(Nc4nccc(-c5cccnc5)n4)c3)cc(C(F)(F)F)c2)cn1 [Nilotinib]	lower range
CN1CCN(c2ccc([N+](=O)[O-])c3no[n+]([O-])c23)CC1	middle range
COc1ccc(S(=O)(=O)Nc2cccnc2Nc2ccc(O)cc2)cc1 [ABT-751]	middle range
O=c1ncn2nc(Sc3ccc(F)cc3F)ccc2c1-c1c(Cl)cccc1Cl [VX-745]	upper range
O=C(c1ccccc1)c1ccc2n1CCC2C(=O)O (centres undefined) [Ketorolac]	upper range

Hey, which category is CCC[C@H](Nc1nc(-c2ccc(NC(=O)NCC)c(OC)c2)ncc1C)c1cccnc1 [CYT997] in, do you know?
lower range

Hey, which category is Clc1ccc(C2(c3ccc(-c4cn[nH]c4)cc3)CCNCC2)cc1 [AT7867] in, do you know?
lower range

Hey, which category is COc1cc2c(N3CCN(C(=O)Nc4ccc(OC(C)C)cc4)CC3)ncnc2cc1OCCCN1CCCCC1 [Tandutinib (MLN518)] in, do you know?
middle range

Hey, which category is CCC1=C[C@@H]2CN(C1)Cc1c([nH]c3ccccc13)[C@@](C(=O)OC)(c1cc3c(cc1OC)N(C)[C@H]1[C@@](O)(C(=O)OC)[C@H](OC(C)=O)[C@]4(CC)C=CCN5CC[C@@]31[C@H]54)C2 [Vinorelbine(Navelbine)] in, do you know?
lower range

Hey, which category is O=C(O)[C@H]1O[C@@H](Oc2cc3oc(-c4ccccc4)cc(=O)c3c(O)c2O)[C@H](O)[C@@H](O)[C@@H]1O [Baicalin] in, do you know?
upper range

----------
Provide the reported relative viability of each item.
Test system: 621-102 (TSC2-deficient)
Test: relative viability vs DMSO; higher = less cytotoxic
Details: 0.0001 µM; serum: 10% FBS; 72 h
Structures can show the parent of a compound that is named as a salt.
One number for each entry, in %.

Worked cases, answers included:
Cc1cc(C(C)Nc2ccccc2)c2nc(N3CCOCC3)cc(=O)n2c1 (stereo not drawn)	94.1
CN1[C@@H]2CC[C@H]1C[C@@H](OC(=O)C(CO)c1ccccc1)C2 (stereo partly drawn) [Atropine sulfate monohydrate]	64.6
COCC[n+]1c2c(n(Cc3cnccn3)c1C)C(=O)c1ccccc1C2=O	119
COC(=O)Nc1ccc(-c2nc(N3CCOCC3)c3cnn(C4CCN(C(=O)OC)CC4)c3n2)cc1	89.9
O=C1NC(=O)C(c2ccccc2)(c2ccccc2)N1	109

Would you be so kind as to report relative viability for each listed record?
1. COc1ccc(C(CN(C)C)C2(O)CCCCC2)cc1 (stereo not drawn) [Venlafaxine HCl]
2. COC(=O)C1=C(C)NC(C)=C(C(=O)OCC(C)C)C1c1ccccc1[N+](=O)[O-] (stereo not drawn)
3. CCCCCOC(=O)Nc1nc(=O)n([C@@H]2O[C@H](C)[C@@H](O)[C@H]2O)cc1F

[74.8, 100, 109]
